tgt: T1, recombinant extracellular domain of CD38 (human, UniProt P28907 43-300)
T1 construct: also called CD38 extracellular domain; AtaGenix ATMP00140HU
assayInfo: Biacore SPR
propertyMeasured: koff (s⁻¹)
Record the value in s⁻¹, omitting the unit from your answer.

Observe how each entry below is paired with its result.
binder	koff, s⁻¹
FTL004-hu-15 (antibody, human IgG1, kappa, V domains shown, also called FLT004-hu-15; FTL004-hum-15) VH: EVQLVQSGAEVKKPGATVKISCKASGYTFTDYNVHWIQQAPGKGLEWIGYFYPRNGATHYNQKFTGRATLTADTSTDTAYMEISSLRSEDTAVYFCARGETPGTFPYWGQGTLVTVSS VL: EIVLTQSPATLSLSPGERATLSCRASESVDNFGITFMHWYQQKPGQAPRLLIYRASNLESGIPARFSGSGSRTDFTLTISSLEPEDFAVYYCQQSSKDPRTFGQGTKLEIKR	0.000784
FTL004-hu-10 (antibody, human IgG1, kappa, V domains shown, also called FLT004-hu-10; FTL004-hum-10) VH: QVQLVQSGAEVKKPGASVKVSCKASGYTFTDYNVHWIRQAPGQGLEWIGYFYPRNGATHYAQKFQGRVTMTVDTSTSTAYMELSSLRSEDTAVYYCARGETPGTFPYWGQGTLVTVSS VL: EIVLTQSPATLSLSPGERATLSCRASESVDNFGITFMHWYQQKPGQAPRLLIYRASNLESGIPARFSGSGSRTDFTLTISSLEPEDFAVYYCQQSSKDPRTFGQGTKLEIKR	0.00241

Continue with the next binder.
Prompt: Give recorded koff. FTL004-hu-4 (antibody, human IgG1, kappa, V domains shown, also called FLT004-hu-4; FTL004-hum-4) VH: QVQLVQSGSELKKPGASVKVSCKASGYTFTDYNVHWIRQAPGQGLEWIGYFYPRNGATHYAQGFTGRAVLSADTSVSTAYLQISSLKAEDTAVYYCARGETPGTFPYWGQGTLVTVSS VL: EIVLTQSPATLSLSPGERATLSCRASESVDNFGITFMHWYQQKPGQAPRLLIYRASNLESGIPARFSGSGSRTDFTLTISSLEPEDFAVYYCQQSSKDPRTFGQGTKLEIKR
Completion: 0.00313
